Target: T1, human MSLN-FL-his protein (human, UniProt Q13421 296-580)
T1 construct: made in HEK293E cells, purified on nickel column; also called hMSLN-FL-his; human MSLN full-length protein; not shown: His tag
T1 sequence (Q13421 other isoform, or with tags, fused parts or gaps): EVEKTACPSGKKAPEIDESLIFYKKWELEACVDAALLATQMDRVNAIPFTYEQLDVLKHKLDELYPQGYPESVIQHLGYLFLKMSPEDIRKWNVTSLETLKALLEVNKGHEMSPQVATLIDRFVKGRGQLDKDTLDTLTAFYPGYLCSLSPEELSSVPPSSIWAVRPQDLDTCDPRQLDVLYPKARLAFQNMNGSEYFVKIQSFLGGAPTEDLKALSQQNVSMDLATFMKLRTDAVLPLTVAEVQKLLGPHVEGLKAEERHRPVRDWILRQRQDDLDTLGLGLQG
Test: competitive ELISA; coated 2ug/ml F3.80.22
PARAMETER: competition rate (%)

>>> numeric_result("S009-F3.74.20 (antibody, human IgG1, kappa, V domains shown, human-murine chimeric antibody, human IgG1/kappa constant regions) VH: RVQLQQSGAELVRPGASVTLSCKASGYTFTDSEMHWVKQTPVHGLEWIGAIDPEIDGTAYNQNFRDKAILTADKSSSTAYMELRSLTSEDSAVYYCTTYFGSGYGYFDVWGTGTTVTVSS VL: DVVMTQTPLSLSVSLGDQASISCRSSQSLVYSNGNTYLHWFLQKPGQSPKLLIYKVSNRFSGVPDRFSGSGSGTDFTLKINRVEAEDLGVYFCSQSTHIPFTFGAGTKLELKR")
-15
>>> numeric_result("S009-F3.80.22 (antibody, human IgG1, kappa, V domains shown, human-murine chimeric antibody, human IgG1/kappa constant regions) VH: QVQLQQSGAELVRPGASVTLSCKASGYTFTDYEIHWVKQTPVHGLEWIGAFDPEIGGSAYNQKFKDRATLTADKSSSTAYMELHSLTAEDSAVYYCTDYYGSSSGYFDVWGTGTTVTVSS VL: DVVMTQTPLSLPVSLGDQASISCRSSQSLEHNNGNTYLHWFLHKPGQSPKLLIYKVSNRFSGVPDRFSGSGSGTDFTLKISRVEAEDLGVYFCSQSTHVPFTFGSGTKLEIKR")
63
>>> numeric_result("S009-F4-127.10 (antibody, human IgG1, kappa, V domains shown, human-murine chimeric antibody, human IgG1/kappa constant regions) VH: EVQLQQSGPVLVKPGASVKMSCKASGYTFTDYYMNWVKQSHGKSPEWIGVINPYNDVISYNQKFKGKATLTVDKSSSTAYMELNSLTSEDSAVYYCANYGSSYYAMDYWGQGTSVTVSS VL: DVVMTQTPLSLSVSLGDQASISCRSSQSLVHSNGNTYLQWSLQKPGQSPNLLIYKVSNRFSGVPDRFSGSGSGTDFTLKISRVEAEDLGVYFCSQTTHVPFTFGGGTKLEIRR")
-5
>>> numeric_result("S009-F3.45.21 (antibody, human IgG1, kappa, V domains shown, human-murine chimeric antibody, human IgG1/kappa constant regions) VH: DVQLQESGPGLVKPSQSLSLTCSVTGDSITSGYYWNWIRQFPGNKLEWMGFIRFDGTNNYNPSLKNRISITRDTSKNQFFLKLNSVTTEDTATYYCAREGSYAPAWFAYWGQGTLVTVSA VL: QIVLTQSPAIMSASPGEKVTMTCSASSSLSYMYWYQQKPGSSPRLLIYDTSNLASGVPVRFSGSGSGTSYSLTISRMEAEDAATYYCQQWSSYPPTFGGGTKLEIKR")
-26
